organism: Rattus norvegicus; test: DrugMatrix - Regimen: Daily Repeat; format: toxicity, organism-based, Sprague-Dawley; design: regimen Daily Repeat, gender Male, age 6-8 weeks; conditions: in vivo, po, 0 mg/kg, 120 h, tissue Blood, route oral GAVAGE, dose level Control, time 5 day, vehicle 100 % WATER
recorded_endpoint: NEUTROPHIL (%)
Use % as the unit, but write only the number.

CS(=O)(=O)c1ccc([C@@H](O)[C@@H](CO)NC(=O)C(Cl)Cl)cc1 : 7.67
O.O.O.O.O.O.[Cl-].[Cl-].[Sr+2] [STRONTIUM CHLORIDE HEXAHYDRATE] : 7.67
Cc1ccc(NC(=O)c2ccc(CN3CCN(C)CC3)cc2)cc1Nc1nccc(-c2cccnc2)n1 : 7.67

Q: Look up NEUTROPHIL for this compound: CC(C)NCC(O)c1ccc(NS(C)(=O)=O)cc1 (centres undefined)
Ans: 9.83

Q: Looking for the measured NEUTROPHIL of Oc1cccc(O)c1O , can you help?
Ans: 13.8

Q: Give its NEUTROPHIL value. Item: CN(C)CCOC(c1ccccc1)c1ccccc1 [DIPHENHYDRAMINE]
Ans: 9.17

Q: Could you tell me which NEUTROPHIL is on file for CCN(CC)CCNC(=O)c1cc(S(C)(=O)=O)ccc1OC [TIAPRIDE] ?
Ans: 7.67

Q: Which NEUTROPHIL reading was recorded for the compound CN1[C@@H]2CC[C@H]1C[C@@H](OC(=O)C(CO)c1ccccc1)C2 (some centres undefined) ?
Ans: 5.67

Q: Fill in: NEUTROPHIL of CC(C)(C)CC(C)(C)c1ccc(OCCOCC[N+](C)(C)Cc2ccccc2)cc1.[Cl-] [BENZETHONIUM CHLORIDE] is ___
Ans: 9.17

* * *

organism: Rattus norvegicus; test: DrugMatrix - Regimen: Daily Repeat; assay type: toxicity, organism-based, Sprague-Dawley; set-up: regimen Daily Repeat, gender Male, age 6-8 weeks; conditions: in vivo, po, 0 mg/kg, 72 h, tissue Plasma, route oral GAVAGE, dose level Control, time 3 day, […]
Consider the following compounds and their measured LIPASE readings.
Entry format: amount then unit.

// known answers, use as guide
CO[C@H]1/C=C/O[C@@]2(C)Oc3c(C)c(O)c4c(O)c(c(/C=N/N5CCN(C6CCCC6)CC5)c(O)c4c3C2=O)NC(=O)/C(C)=C\C=C\[C@H](C)[C@H](O)[C@@H](C)[C@@H](O)[C@@H](C)[C@H](OC(C)=O)[C@@H]1C : 9.33 u/L
Clc1ccc(COC(Cn2ccnc2)c2ccc(Cl)cc2Cl)cc1 (centres undefined) : 12.67 u/L
CC(C)(C)NC(=O)[C@H]1CC[C@H]2[C@@H]3CC[C@H]4NC(=O)C=C[C@]4(C)[C@H]3CC[C@]12C [FINASTERIDE] : 11.33 u/L

Shift focus to the following entry.
Q: So what does the record say about LIPASE for COc1cc(N)c(Cl)cc1C(=O)NC1CCN(CCCOc2ccc(F)cc2)CC1OC (centres undefined) [CISAPRIDE] ?
Ans: 9.67 u/L

* * *

species: Rattus norvegicus; assay: DrugMatrix - Regimen: Daily Repeat; format: toxicity, organism-based, Sprague-Dawley; parameters: regimen Daily Repeat, gender Male, age 6-8 weeks; details: in vivo, po, 0 mg/kg, 72 h, tissue Blood, route oral GAVAGE, dose level Control, time 3 day, vehicle 100 % WATER
recorded_endpoint: ABSOLUTE EOSINOPHIL (CELLS/uL)
Respond numerically; units are CELLS/uL and should not be typed.

Q: Please report the recorded ABSOLUTE EOSINOPHIL for CN(C)CCOC(c1ccccc1)c1ccccc1 [DIPHENHYDRAMINE] .
Ans: 20.17

Q: Requested read-out: ABSOLUTE EOSINOPHIL. Entry: NNc1nncc2ccccc12 [HYDRALAZINE]
Ans: 20.17

Q: Please give the measured ABSOLUTE EOSINOPHIL for this compound: CN(C)CC[C@@H](c1ccc(Cl)cc1)c1ccccn1 [DEXCHLORPHENIRAMINE]
Ans: 58.83
